Data provenance is patent US9493446B2.

Measured IC50, listed per entry for reference.
Biological target: orexin-1 (Homo sapiens (Human))
Sequence (O43613 whole entry): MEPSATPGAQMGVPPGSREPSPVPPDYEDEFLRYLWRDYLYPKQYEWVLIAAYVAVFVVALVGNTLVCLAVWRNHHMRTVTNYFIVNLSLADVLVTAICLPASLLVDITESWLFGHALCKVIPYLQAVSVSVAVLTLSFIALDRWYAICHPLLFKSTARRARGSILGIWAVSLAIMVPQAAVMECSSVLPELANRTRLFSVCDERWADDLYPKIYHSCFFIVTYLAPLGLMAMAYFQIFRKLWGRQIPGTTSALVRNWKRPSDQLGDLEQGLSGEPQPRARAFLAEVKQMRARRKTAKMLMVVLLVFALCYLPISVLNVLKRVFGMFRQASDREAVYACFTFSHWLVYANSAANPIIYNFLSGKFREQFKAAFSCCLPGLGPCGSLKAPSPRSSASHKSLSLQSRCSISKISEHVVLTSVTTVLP
Assay: Intracellular calcium measurement (FLIPR), CHO cells expressing human orexin-1 receptor, 3 nM orexin-A
Assay type: cell-based
Conditions: CHO cells expressing human orexin-1 receptor, FLIPR, 3 nM orexin-A; geometric mean if determined several times; read-out: IC50 OX1
Show the value, then the unit it is measured in.

Cc1cc(C(=O)N2CCC[C@H]2c2nnc(-c3cccc(Cl)c3C)o2)c(-n2nccn2)cc1C	30 nM
COc1cc(-c2noc([C@@H]3CCCN3C(=O)c3cc(C)ccc3-n3nccn3)n2)ccn1	2290 nM
CCOc1ncccc1-c1nc([C@@H]2CCCN2C(=O)c2cc(C)c(C)cc2-n2nccn2)no1	1 nM

Input line: Observed IC50 on orexin-1 (Homo sapiens (Human)) for `Cc1cc(C(=O)N2CCC[C@@]2(C)c2nnc(-c3cccc(Cl)c3C)[nH]2)c(-n2nccn2)cc1C` , please.
Output line: 14 nM

Input line: Observed IC50 on orexin-1 (Homo sapiens (Human)) for `Cc1cc(-n2nccn2)c(C(=O)N2CCC[C@@]2(C)c2nnc(-c3ccccc3OC(F)(F)F)[nH]2)cc1Cl` , please.
Output line: 4 nM

Input line: Observed IC50 on orexin-1 (Homo sapiens (Human)) for `COc1cc(C(=O)N2CCC[C@H]2c2noc(-c3cccc(F)c3OC)n2)c(-n2nccn2)cc1F` , please.
Output line: 212 nM

Input line: Observed IC50 on orexin-1 (Homo sapiens (Human)) for `COc1c(F)cccc1-c1noc([C@@H]2CCCN2C(=O)c2ccc(C)c(C)c2-n2nccn2)n1` , please.
Output line: 149 nM

Input line: Observed IC50 on orexin-1 (Homo sapiens (Human)) for `CCOc1c(F)cccc1-c1nc([C@@H]2CCCN2C(=O)c2cc(OC)ccc2-n2nccn2)no1` , please.
Output line: 27 nM

Input line: Observed IC50 on orexin-1 (Homo sapiens (Human)) for `COc1c(F)cccc1-c1nnc([C@@H]2CCCN2C(=O)c2cc(C)ccc2-n2nccn2)o1` , please.
Output line: 762 nM
